Origin of values: patent US6423745B1

Assay: Toxicity to rat
Conditions: in vivo, male rats, dilution in corn oil, 10 ml/kg, mortality after 7 days

Molecule	LD50 at 7 days
C#CCC1=C(C)[C@@H](OC(=O)[C@@H]2[C@@H](C=C(Cl)Cl)C2(C)C)CC1=O	> 300 mg/kg
C#CCC1=C(C)[C@@H](OC(=O)[C@@H]2[C@H](C=C(Cl)Cl)C2(C)C)CC1=O (racemic)	< 100 mg/kg
